TEST PROTOCOL: Single ascending dose
Assay type: in vivo, human
CONDITION LABEL: human, plasma, oral, 30 mg, t 1/2 GM (%CVb), SAD 30 mg
RECORDED METRIC: half-life (h)
Give the quantity in h, number only.

What measured half-life goes with C=C(C)[C@@H]1CC[C@]2(NCCN3CCS(=O)(=O)CC3)CC[C@]3(C)[C@H](CC[C@@H]4[C@@]5(C)CC=C(C6=CC[C@@](COc7ncccc7C#N)(C(=O)O)CC6)C(C)(C)[C@@H]5CC[C@]43C)[C@@H]12 [GSK'937] ?
75.9

----------
TEST PROTOCOL: Multiple ascending dose
Type: in vivo, human
CONDITION LABEL: human, plasma, oral, 500 mg, t max, h median (range), 500 mg QW, Day 8
RECORDED METRIC: Tmax

What measured Tmax goes with C=C(C)[C@@H]1CC[C@]2(NCCN3CCS(=O)(=O)CC3)CC[C@]3(C)[C@H](CC[C@@H]4[C@@]5(C)CC=C(C6=CC[C@@](COc7ncccc7C#N)(C(=O)O)CC6)C(C)(C)[C@@H]5CC[C@]43C)[C@@H]12 [GSK'937] ?
10 h
